# Test system: A. baumannii biofilms
# Method summary: MBEC, MBEC Inoculation Tray (Innovotech), to 10^2 CFU/peg in 24 hours
# Type: cell-based, Acinetobacter baumannii
# Reported conditions: Table 4
Counter-ions that a name gives are not always drawn.
Provide the recorded MBEC μg/mL (μM) A. baumannii for the entries that follow.

Take a look at these entries with their results.
Form field MBEC μg/mL (μM) A. baumannii for item NCCCNCCCNCc1ccccc1 on A. baumannii biofilms: >500 µg/mL

Observed MBEC μg/mL (μM) A. baumannii, A. baumannii biofilms, NCCCNCCCNCc1cc(CNCCCNCCCN)cc(CNCCCNCCCN)c1 [CZ-52, hydrochloride salt] : >500 µg/mL

MBEC μg/mL (μM) A. baumannii for A. baumannii biofilms with input NCCCNCCCNCc1cc(CNCCCNCCCN)cc(-c2ccccc2)c1 equals >50 µg/mL

More entries:
// molecule NCCCNCCCNCc1cccc(CNCCCNCCCN)c1 , assay A. baumannii biofilms, MBEC μg/mL (μM) A. baumannii value: 450 µg/mL

====

# System: MRSA biofilms
# Method summary: MBEC, MBEC Inoculation Tray (Innovotech), to 10^2 CFU/peg in 24 hours
# Assay type: cell-based, Staphylococcus aureus
# Reported conditions: Table 4
Counter-ions that a name gives are not always drawn.
Outcome measure: MBEC μg/mL (μM) MRSA (µg/mL)
Give bare numbers, in µg/mL.

Examples with answers:
MBEC μg/mL (μM) MRSA reading for NCCCNCCCNCc1cccc(CNCCCNCCCN)c1 [CZ-25] : 25

MBEC μg/mL (μM) MRSA in this record for NCCCNCCCNCc1cc(CNCCCNCCCN)cc(CNCCCNCCCN)c1 [CZ-52, hydrochloride salt] : 20

// next item, MBEC μg/mL (μM) MRSA requested
Sample NCCCNCCCNCc1cc(CNCCCNCCCN)cc(-c2ccccc2)c1 [CZ-58] ; MBEC μg/mL (μM) MRSA observed: 30

====

# Test system: A. baumannii
# Method summary: MIC, 96-well CAMHB, 10^5 to 10^2 CFU/mL in 24 hours
# Type: cell-based, Acinetobacter baumannii
# Reported conditions: Acinetobacter baumannii; Table 5; read-out: MIC (A. bumannii)
Outcome measure: MIC

// recorded MIC for CCCCCCCCNCCCNCCCNCc1cccc(CNCCCNCCCNCCCCCCCC)c1 [CZ-100] : < 50 µM

For every item below, please supply its MIC.
1. CCCCCCCCNCCCNCCCNCc1cc(CNCCCNCCCNCCCCCCCC)cc(OCC2CCCCC2)c1 [CZ-103]
2. NCCCNCCCNCc1cc(CNCCCNCCCN)cc(CNCCCNCCCN)c1 [CZ-55]
3. NCCCNCCCNCc1cc(CNCCCNCCCN)cc(-c2c(CNCCCNCCCN)cccc2CNCCCNCCCN)c1 [CZ-60]
4. CCCCCCCCNCCCNCCCNCc1cc(CNCCCNCCCNCCCCCCCC)cc(OCCCNCC(C)C)c1 [CZ-110]

Result:
1. < 50 µM
2. > 100 µM
3. > 100 µM
4. < 50 µM
